Taken from patent US12617783B2.

assay: in vivo; conditions: male, cynomolgus monkey, iv, 0.12 mg/kg
The reader will find reported AUC(0-inf) values listed item by item below.
measured.metric: AUC(0-inf)

>>> observed("Cc1cc(-n2nc3c(c2-n2ccn(-c4ccc5c(cnn5C)c4F)c2=O)[C@@H]2COC[C@H](C3)N2C(=O)c2cc3cc([C@H]4CCOC(C)(C)C4)ccc3n2[C@@]2(c3noc(=O)[nH]3)C[C@@H]2C)cc(C)c1F")
"182 ng·h/mL"
>>> observed("Cc1cc(-n2nc3c(c2-n2ccn(-c4ccc5c(cnn5C)c4F)c2=O)[C@@H]2CC[C@H](C3)N2C(=O)c2cc3cc([C@H]4CCOC(C)(C)C4)ccc3n2[C@@]2(c3noc(=O)[nH]3)C[C@@H]2C)cc(C)c1F")
"512 ng·h/mL"
>>> observed("Cc1cc(-n2nc3c(c2-n2ccn(-c4ccc5c(cnn5C)c4F)c2=O)[C@@H]2CC[C@H](C3)N2C(=O)c2cc3cc([C@H]4CCOC5(CC5)C4)ccc3n2[C@@]2(c3noc(=O)[nH]3)C[C@@H]2C)cc(C)c1F")
"619 ng·h/mL"

----------
The reader will find reported pEC50 values listed item by item below.
target: human GLP-1R (Homo sapiens, UniProt P43220); construct: host or cells: HEK293; test: GLP-1R cAMP assay (Example B1a, HTRF, 30 min at room temperature); format: cell-based; details: cAMP accumulation in HEK293 expressing human GLP-1R, no BETP, 30 min room temperature (Method B1a, compounds ID 1-609), Table 1; read-out: EC50
Sequence (P43220 24-463): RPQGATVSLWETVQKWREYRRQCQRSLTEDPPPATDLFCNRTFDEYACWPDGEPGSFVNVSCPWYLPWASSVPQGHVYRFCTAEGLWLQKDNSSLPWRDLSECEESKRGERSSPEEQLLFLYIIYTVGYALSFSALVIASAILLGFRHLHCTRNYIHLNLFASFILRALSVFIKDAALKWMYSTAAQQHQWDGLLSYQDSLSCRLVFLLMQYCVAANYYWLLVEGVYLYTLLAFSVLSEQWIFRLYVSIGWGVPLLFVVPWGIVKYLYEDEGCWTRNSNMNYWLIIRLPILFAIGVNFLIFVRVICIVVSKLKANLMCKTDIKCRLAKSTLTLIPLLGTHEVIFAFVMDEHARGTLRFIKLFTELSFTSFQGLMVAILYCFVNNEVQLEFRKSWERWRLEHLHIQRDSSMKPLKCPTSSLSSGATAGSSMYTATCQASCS
pEC50: −log10 of the molar value.
measured.metric: pEC50

>>> observed("Cc1cc(-n2nc3c(c2-n2ccn(-c4ccc5c(cnn5C)c4F)c2=O)[C@@H]2CC[C@H](C3)N2C(=O)c2cc3cc([C@@H]4CCOC(C)(C)C4)cnc3n2[C@@]2(c3noc(=O)[nH]3)C[C@@H]2C)cc(C)c1F [Compound 312]")
5.87
>>> observed("Cc1cc(-n2nc3c(c2-n2ccn(-c4ccc5c(cnn5C)c4F)c2=O)[C@@H]2COC[C@H](C3)N2C(=O)c2cc3cc([C@@H]4CCOC5(CC5)C4)ccc3n2[C@@]2(c3noc(=O)[nH]3)C[C@@H]2C)cc(C)c1F [Compound 227]")
6.23

----------
molecular target: human GLP-1R (Homo sapiens, UniProt P43220); construct: host or cells: HEK293; assay: GLP-1R cAMP assay (Example B1a, HTRF, 30 min at room temperature); assay type: cell-based; details: cAMP accumulation in HEK293 expressing human GLP-1R, no BETP, 30 min room temperature (Method B1a, compounds ID 1-609), Table 1; read-out: EC50
measured.metric: EC50

>>> observed("Cc1cc(-n2nc3c(c2-c2nc(-c4ccc5c(cnn5C)c4F)c(C)[nH]2)[C@H](C)N(C(=O)c2cc4cc([C@H]5CCOC(C)(C)C5)ccc4n2[C@@]2(c4noc(=O)[nH]4)C[C@@H]2C)CC3)cc(C)c1F [Compound 24]")
"> 10 µM"
>>> observed("Cc1cc(-n2nc3c(c2-n2ccn(-c4ccc5c(cnn5C)c4C)c2=O)[C@@H]2COC[C@H](C3)N2C(=O)c2cc3cc([C@H]4CCOC(C)(C)C4)ccc3n2[C@@]2(c3noc(=O)[nH]3)C[C@@H]2C)cc(C)c1F [Compound 228]")
"0.402 µM"
>>> observed("Cc1cc(-n2nc3c(c2-n2ccn(-c4ccc5c(cnn5C)c4F)c2=O)[C@H]2CC[C@@H](C3)N2C(=O)c2cc3cc([C@H]4CCOC5(CC5)C4)ccc3n2[C@]2(c3noc(=O)[nH]3)C[C@@H]2C)cc(C)c1F [Compound 531]")
"≥ 10 µM"
>>> observed("Cc1cc(-n2nc3c(c2N2C(=O)CN(c4ccc5c(cnn5C)c4F)C2=O)[C@H]2CC[C@@H](C3)N2C(=O)c2cc3cc([C@H]4CCOC(C)(C)C4)ccc3n2[C@@]2(c3noc(=O)[nH]3)C[C@@H]2C)cc(C)c1F [Compound 234]")
"> 10 µM"

----------
The reader will find reported pEC50 values listed item by item below.
Target: human GLP-1R (Homo sapiens)
Construct: host or cells: HEK293
Assay: GLP-1R cAMP assay (Example B1a, HTRF, 30 min at room temperature)
Format: cell-based
Conditions: cAMP accumulation in HEK293 expressing human GLP-1R, no BETP, 30 min room temperature (Method B1a, compounds ID 1-609), Table 1; read-out: EC50
Description: Assay was carried out with HEK293 expressing human GLP-1R using HTRF assay, developed by Wuxi Apptec. The method is a competitive assay between native cAMP produced by the cells and exogenous cAMP labeled with a proprietary dye d2. […] Plates were read on Envision plate reader. The data were analyzed by ScreenUltra in Dotmatics, with % activation expressed using following formula: (Well data−negative control)/(postive control−negative control)*100. […]
pEC50: −log10 of the molar value.
measured.metric: pEC50

>>> observed("Cc1cc(-n2nc3c(c2-n2ccn(-c4ccc5c(cnn5C)c4F)c2=O)[C@@H]2CC[C@H](C3)N2C(=O)c2cc3cn(C4CCOC(C)(C)C4)c(=O)cc3n2[C@@]2(c3noc(=O)[nH]3)C[C@@H]2C)cc(C)c1F (stereo partly drawn)")
6.58
>>> observed("Cc1cc(-n2nc3c(c2-n2ccn(-c4ccn5c(cc(=O)n5C)c4F)c2=O)[C@@H]2CC[C@H](C3)N2C(=O)c2cc3cc([C@H]4CCOC(C)(C)C4)ccc3n2[C@@]2(c3noc(=O)[nH]3)C[C@@H]2C)cc(C)c1F")
7.91
>>> observed("Cc1cc(-n2nc3c(c2-n2ccn(-c4ccc5[nH]ncc5c4F)c2=O)[C@@H]2CC[C@H](C3)N2C(=O)c2cc3cc([C@H]4CCOC5(CC5)C4)ccc3n2[C@@]2(c3noc(=O)[nH]3)C[C@@H]2C)cc(C)c1F")
7.15
>>> observed("COc1ccc(-n2ccn(-c3c4c(nn3-c3cc(C)c(F)c(C)c3)C[C@H]3CC[C@@H]4N3C(=O)c3cc4cc([C@H]5CCOC(C)(C)C5)ccc4n3[C@@]3(c4noc(=O)[nH]4)C[C@@H]3C)c2=O)cc1")
6.59

----------
test: Pharmacokinetic analysis in cynomolgus monkeys; conditions: male, cynomolgus monkey, plasma, po, 0.36 mg/kg
measured.metric: Tmax (h)

>>> observed("Cc1cc(-n2nc3c(c2-n2ccn(-c4ccc5c(cnn5C)c4F)c2=O)[C@H](C)N(C(=O)c2cc4cc([C@H]5CCOC(C)(C)C5)ccc4n2[C@@]2(c4noc(=O)[nH]4)C[C@@H]2C)CC3)cc(C)c1F [Orforglipron, orforglipron, reference compound]")
1.33

----------
The reader will find reported EC50 values listed item by item below.
molecular target: human GLP-1R (Homo sapiens, UniProt P43220); construct: host or cells: HEK293; assay: GLP-1R cAMP assay (Example B1b, HTRF, 30 min at 37°); type: cell-based; conditions: cAMP accumulation in HEK293 expressing human GLP-1R, no BETP, 30 min at 37° (Method B1b), Table 1
measured.metric: EC50

>>> observed("Cc1cc(-c2nn3c(c2-n2ccn(-c4ccc5c(cnn5C)c4F)c2=O)[C@H](C)N(C(=O)c2cc4cc([C@H]5CCOC(C)(C)C5)ccc4n2[C@@]2(c4noc(=O)[nH]4)C[C@@H]2C)CCC3)cc(C)c1F")
"0.0024 µM"
>>> observed("Cc1cc(-n2nc3c(c2-n2ccn(-c4ccc5c(c4)N(C)C(=O)C5=O)c2=O)[C@@H]2CCC[C@H](C3)N2C(=O)c2cc3cc([C@H]4CCOC(C)(C)C4)ccc3n2[C@@]2(c3noc(=O)[nH]3)C[C@@H]2C)cc(C)c1F")
"0.004 µM"
>>> observed("Cc1cc(-n2nc3c(c2-n2ccn(-c4ccc5c(cnn5C)c4F)c2=O)[C@@H]2CC[C@H](C3)N2C(=O)c2cc3cc([C@H]4CCOC(C)(C)C4)ccc3n2[C@@]2(c3noc(=O)n3C)C[C@@H]2C)cc(C)c1F")
"0.0505 µM"
>>> observed("Cc1cc(-n2nc3c(c2-n2ccn(-c4ccc5c(cnn5C)c4F)c2=O)[C@@H]2CC[C@H](C3)N2C(=O)c2cc3cc([C@H]4CCOC(C)(C)C4)cc(F)c3n2[C@@]2(c3noc(=O)[nH]3)C[C@@H]2C)cc(C)c1F")
"0.006 µM"
>>> observed("Cc1cc(-n2nc3c(c2-n2ccn(-c4ccc5c(cnn5C)c4F)c2=O)[C@@H]2COC[C@H](C3)N2C(=O)c2cc3cc([C@@H]4CCOC(C)(C)C4)cc(F)c3n2[C@@]2(c3noc(=O)[nH]3)C[C@@H]2C)cc(C)c1F")
"0.059 µM"
>>> observed("Cc1cc(-c2nn3c(c2-n2ccn(-c4ccc5c(cnn5C)c4F)c2=O)[C@@H](C)N(C(=O)c2cc4cc([C@H]5CCOC(C)(C)C5)ccc4n2[C@@]2(c4noc(=O)[nH]4)C[C@@H]2C)CCC3)cc(C)c1F")
"> 0.1 µM"
>>> observed("Cc1cc(-n2nc3c(c2-n2ccn(-c4ccc5c(cnn5C)c4F)c2=O)[C@@H]2CC[C@H](C3)N2C(=O)c2c(F)c3cc(C4CCOC(C)(C)C4)ccc3n2[C@@]2(c3noc(=O)[nH]3)C[C@@H]2C)cc(C)c1F (stereo in doubt) [Compound 712]")
"0.112 µM"
>>> observed("Cc1cc(-n2nc3c(c2-n2ccn(-c4ccc5cnccc5c4F)c2=O)[C@@H]2CCC[C@H](C3)N2C(=O)c2cc3cc([C@H]4CCOC5(CC5)C4)ccc3n2[C@@]2(c3noc(=O)[nH]3)C[C@@H]2C)cc(C)c1F")
"0.0006 µM"
>>> observed("Cc1cc(-n2nc3c(c2-n2ccn(-c4ccc(N(C)C(=O)C5CC5)c(Cl)c4)c2=O)[C@@H]2CCC[C@H](C3)N2C(=O)c2cc3cc([C@H]4CCOC(C)(C)C4)ccc3n2[C@@]2(c3noc(=O)[nH]3)C[C@@H]2C)cc(C)c1F")
"0.0019 µM"
>>> observed("Cc1cc(-n2nc3c(c2-n2ccn(-c4ccc5c(cnn5C)c4F)c2=O)[C@@H]2COC[C@H](C3)N2C(=O)c2cc3cc(C4CCOC(C)(C)C4)cc(F)c3n2[C@@]2(c3noc(=O)[nH]3)C[C@@H]2C)cc(C)c1F (stereo partly shown)")
"0.0054 µM"
>>> observed("Cc1cc(-n2nc3c(c2-n2ccn(-c4ccc5c(c4)C4(CC4)C(=O)N5C)c2=O)[C@@H]2CCC[C@H](C3)N2C(=O)c2cc3cc([C@H]4CCOC(C)(C)C4)ccc3n2[C@@]2(c3noc(=O)[nH]3)C[C@@H]2C)cc(C)c1F")
"0.002 µM"
>>> observed("Cc1cc(-n2nc3c(c2-n2ccn(-c4ccc5c(cnn5C)c4F)c2=O)[C@@H]2CC[C@H](C3)N2C(=O)c2c(F)c3cc(C4CCOC(C)(C)C4)ccc3n2[C@@]2(c3noc(=O)[nH]3)C[C@@H]2C)cc(C)c1F (stereo in doubt) [Compound 713]")
"0.004 µM"
>>> observed("Cc1cc(-n2nc3c(c2-n2ccn(-c4ccc5c(cnn5C)c4F)c2=O)[C@@H]2COC[C@H](C3)N2C(=O)c2cc3cc([C@H]4CCOC(C)(C)C4)cc(F)c3n2[C@@]2(c3noc(=O)[nH]3)C[C@@H]2C)cc(C)c1F")
"0.0024 µM"
>>> observed("Cc1cc(-n2nc3c(c2-n2ccn(-c4ccc5c(cnn5C)c4F)c2=O)[C@@H]2CC[C@H](C3)N2C(=O)c2c(F)c3cc(C4CCOC(C)(C)C4)ccc3n2[C@@]2(c3noc(=O)[nH]3)C[C@@H]2C)cc(C)c1F (stereo partly shown) [Compound 708]")
"0.0085 µM"
>>> observed("CNC(=O)Cc1ccc(-n2ccn(-c3c4c(nn3-c3cc(C)c(F)c(C)c3)C[C@H]3CCC[C@@H]4N3C(=O)c3cc4cc([C@H]5CCOC(C)(C)C5)ccc4n3[C@@]3(c4noc(=O)[nH]4)C[C@@H]3C)c2=O)cc1F")
"0.0051 µM"
>>> observed("Cc1cc(-n2nc3c(c2-n2ccn(-c4ccc5c(cnn5C5CC5)c4F)c2=O)[C@@H]2COC[C@H](C3)N2C(=O)c2cc3cc([C@H]4CCOC(C)(C)C4)ccc3n2[C@@]2(c3noc(=O)[nH]3)C[C@@H]2C)cc(C)c1F")
"0.0025 µM"
